Reference for the values: PubChem BioAssay

TARGET: Epidermal growth factor receptor (Homo sapiens)
ASSAY_SUMMARY: EGFR binders on small-molecule microarrays, primary screen, biochemical, small-molecule microarray, 635 nm fluorescence (AID 1104);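 also: score merges 667 nm emission intensity with spot signal to noise over triplicate slides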
COND: EGFR binding, higher = more signal
Rule: y for composite z-score not less than 0.06, n for anything less.

{"COMPOUND": "CN1C(=O)C2C(C1=O)C1C=C(c3ccc(CO)cc3)C2C(c2cccs2)N1C (stereo unspecified)", "TARGET": "Epidermal growth factor receptor (Homo sapiens)", "CLASS_NAME": "n"}
{"COMPOUND": "Cc1c(NC(=O)/C(C#N)=C/c2ccc(Cl)cc2)c(=O)n(-c2ccccc2)n1C", "TARGET": "Epidermal growth factor receptor (Homo sapiens)", "CLASS_NAME": "y"}
{"COMPOUND": "O=C1O[C@H](c2ccccc2)[C@H](c2ccccc2)N2[C@H]1[C@@H](C(=O)NC[C@H](O)c1ccccc1)[C@]1(C(=O)Nc3ccc(C#CCCO)cc31)[C@H]2c1ccccc1OCCO", "TARGET": "Epidermal growth factor receptor (Homo sapiens)", "CLASS_NAME": "n"}
{"COMPOUND": "COCCOC(=O)N1C(=O)[C@@]2(c3cc(C#CC4=CCCCC4)ccc31)[C@H](C(=O)N1CCN(c3ncccn3)CC1)[C@H]1C(=O)O[C@H](c3ccccc3)[C@H](c3ccccc3)N1[C@@H]2c1ccccc1OCCO", "TARGET": "Epidermal growth factor receptor (Homo sapiens)", "CLASS_NAME": "y"}
{"COMPOUND": "CC(=O)NCCCC[C@@H]1NC(=O)[C@@H]2C[C@H](C(=O)NCCCCCC[N+](C)(C)C)[C@H](c3ccc(O)cc3)N2C1=O", "TARGET": "Epidermal growth factor receptor (Homo sapiens)", "CLASS_NAME": "y"}
{"COMPOUND": "C=C(/C(=C/C[C@H](OC(=O)c1ccncc1)c1ccccc1OCCO)c1cc(C(=O)OC)ccc1OC)C(C)C", "TARGET": "Epidermal growth factor receptor (Homo sapiens)", "CLASS_NAME": "n"}
{"COMPOUND": "C=C(CCCC)C(=O)CC[C@H](OC(C)=O)c1ccccc1OCCO", "TARGET": "Epidermal growth factor receptor (Homo sapiens)", "CLASS_NAME": "y"}
{"COMPOUND": "Cc1ccc(S[C@]2(C(=O)NCC(F)(F)F)CC(=O)N(C3CCCCC3)[C@@H]2c2ccc(CO)cc2)cc1", "TARGET": "Epidermal growth factor receptor (Homo sapiens)", "CLASS_NAME": "n"}
{"COMPOUND": "CC=CC(O)C1C=CC2C(=O)N(C)C(=O)C2N1NC(=O)OC(C)(C)C (stereo unspecified)", "TARGET": "Epidermal growth factor receptor (Homo sapiens)", "CLASS_NAME": "y"}
{"COMPOUND": "C=CCOC(=O)[C@H]1[C@@H]2C(=O)O[C@@H](c3ccccc3)[C@@H](c3ccccc3)N2[C@@H](c2ccc(OCCOC(=O)[C@@H]3C[C@@H]4C(=O)N[C@@H](Cc5ccccc5)C(=O)N4[C@@H]3c3ccc(O)cc3)cc2)[C@]12C(=O)Nc1ccccc12", "TARGET": "Epidermal growth factor receptor (Homo sapiens)", "CLASS_NAME": "y"}
{"COMPOUND": "COc1ccc(CCNC(=O)[C@@H]2c3ccccc3C(=O)N(CC34CC5CC(CC(C5)C3)C4)[C@H]2c2ccc(CO)cc2)cc1", "TARGET": "Epidermal growth factor receptor (Homo sapiens)", "CLASS_NAME": "y"}
{"COMPOUND": "COCCCNC(=O)[C@@H]1c2ccccc2C(=O)N(Cc2cc(C(F)(F)F)cc(C(F)(F)F)c2)[C@H]1c1ccc(CO)cc1", "TARGET": "Epidermal growth factor receptor (Homo sapiens)", "CLASS_NAME": "n"}
{"COMPOUND": "O=C1OCCC/C=C\\[C@H]2OC34C=CCN(Cc5ccccc5)C(=O)[C@H]3N(CCCCCO)C(=O)[C@@H]4C12 (stereo partly specified)", "TARGET": "Epidermal growth factor receptor (Homo sapiens)", "CLASS_NAME": "n"}
{"COMPOUND": "C=C(C(=O)CC[C@@H](OC(C)=O)c1cccc(OCCO)c1)C(C)C", "TARGET": "Epidermal growth factor receptor (Homo sapiens)", "CLASS_NAME": "n"}
{"COMPOUND": "C=CCC(OC(C)=O)[C@@H]1[C@@H](N(Cc2ccc(-c3cccc(C(F)(F)F)c3)o2)C(=O)Cc2ccc(F)cc2)c2cc(OCCCO)ccc2N1C(=O)c1ccc2ccccc2n1 (stereo partly specified)", "TARGET": "Epidermal growth factor receptor (Homo sapiens)", "CLASS_NAME": "n"}

###

Test system: Neuregulin-1 EGF-like domain
ASSAY_SUMMARY: binders of neuregulin-1 EGF-like domain, primary screen, biochemical, small-molecule microarray, 635 nm fluorescence (AID 1081);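 also: binding of the protein to compounds printed on small-molecule microarray slides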
COND: small-molecule microarray binding, higher = more signal

{"MOLECULE": "CN(C)CCCNC(=O)[C@@]1(Cc2ccccc2I)c2ccccc2C(=O)N(Cc2ccccc2)[C@H]1c1ccc(CO)cc1", "composite z-score": 1.39}
{"MOLECULE": "CC(=O)c1ccc(C(O)C2C=CC3C(=O)NC(=O)C3N2Nc2ccc(Cl)cc2Cl)cc1 (centres undefined)", "composite z-score": 0.669}
{"MOLECULE": "C=CCN1C(=O)[C@]2(O[C@H](CCO)[C@@H]([Si](C)(C)c3ccc(OC)cc3)[C@@H]2C)c2ccccc21", "composite z-score": 0.122}
{"MOLECULE": "CC(C)C[C@H]1NC(=O)[C@@H](C)NC(=O)[C@@]23C(=O)N[C@@H](Cc4ccccc4)C2[C@H](C)[C@@]2(C)O[C@H]2C3/C=C/C/C=C\\CNC1=O (some centres undefined)", "composite z-score": 0.798}

###

List of z-score values.
ASSAY_SUMMARY: cell viability in Huh7 cells, primary screen, cytotoxicity control for HCV replication inhibitor project, CellTiter-Glo luminescence, basal, 48 h (AID 1143);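 also: Huh7 hepatoma cells carrying a hepatitis C replication reporter with no stimulus; test concentration not given here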
COND: Huh7 HCV replicon, higher = more signal, called active from +8 up or from −8 down
MEASURED_ENDPOINT: z-score

{"SMILES_INPUT": "Cc1ccc(S[C@]2(C(=O)NCCCN(C)C)CC(=O)N(Cc3ccccc3Cl)[C@@H]2c2ccc(CO)cc2I)cc1", "MEASURED_RESULT": -0.826}
{"SMILES_INPUT": "COc1ccc([Si](C)(C)[C@@H]2[C@@H](CCO)O[C@]3(C(=O)N(Cc4ccccc4)c4ccc(N5C(=O)c6ccccc6Oc6ccccc65)cc43)[C@H]2C)cc1", "MEASURED_RESULT": -5.7}
{"SMILES_INPUT": "Cc1ccc(F)cc1S(=O)(=O)N[C@@H]1CCN(Cc2ccc3c(c2)OCO3)C1", "MEASURED_RESULT": -1.51}

###

ASSAY_SUMMARY: E. coli acrAB mutant growth effects, primary screen, E. coli filamentation inducers, strain DRC39, OD650, 48 h (AID 1179);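 also: screen aims at cell division blockers that make cells filament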
COND: E. coli DRC39 delta-acrAB growth, higher = more signal, called active from +8 up or from −8 down
Activity calls are given as the source filed them.
# reported z-score; entries follow

{"COMPOUND": "C=C(COC)/C(=C/C[C@@H](OC(C)=O)c1ccccc1OCCO)c1cc(C(=O)OC)ccc1OC", "z-score": "-0.199 (inactive)"}
{"COMPOUND": "C=CCC(OC(C)=O)[C@@H]1[C@@H](N(Cc2ccc(-c3cccc(C(F)(F)F)c3)o2)C(=O)c2cccc3ccccc23)c2cc(OCCCO)ccc2N1C(=O)c1ccc2ccccc2n1 (stereo partly specified)", "z-score": "-0.195 (inactive)"}
{"COMPOUND": "C=CCC(OC(C)=O)[C@@H]1[C@@H](N(Cc2ccc(-c3cccc(C(F)(F)F)c3)o2)C(=O)c2cccc3ccccc23)c2cc(OCCCO)ccc2N1C(=O)c1ccc2ccccc2c1 (stereo partly specified)", "z-score": "0.489 (inactive)"}
{"COMPOUND": "C=CCC(OC(C)=O)[C@@H]1[C@@H](N(Cc2cc3ccccc3o2)C(=O)Cc2ccc(OC)cc2)c2cc(OCCCO)ccc2N1C(=O)Cc1ccc2ccccc2c1 (stereo partly specified)", "z-score": "-0.94 (inactive)"}
{"COMPOUND": "CC(C)C(=C=CC[C@@H](O)c1ccccc1OCCO)C[C@@H](O)c1cc(Cl)cc(Cl)c1O", "z-score": "-0.796 (inactive)"}
{"COMPOUND": "[N-]=[N+]=NCc1ccccc1C[C@]1(C(=O)O)COC(c2ccc(OCCCO)cc2)=N1", "z-score": "-0.0558 (inactive)"}
{"COMPOUND": "Cc1ccc(F)cc1S(=O)(=O)N[C@@H]1CCN(Cc2ccc3[nH]ccc3c2)C1", "z-score": "-4.18 (inactive)"}
{"COMPOUND": "CO[C@H]1O[C@H](CO)[C@@H](OC(=O)Nc2ccc(C(F)(F)F)cc2)[C@H](OC(=O)Nc2ccccc2-c2ccccc2)[C@H]1OC(=O)Nc1ccccc1-c1ccccc1", "z-score": "-1.25 (inactive)"}
{"COMPOUND": "CC(C)CNC(=O)[C@@]1(C)c2ccccc2C(=O)N(Cc2cc(F)cc(C(F)(F)F)c2)[C@H]1c1ccc(CO)cc1", "z-score": "0.137 (inactive)"}
{"COMPOUND": "CCC[C@@H]1C=C(C(=O)OCC)[C@H](c2ccccc2)N1S(=O)(=O)c1ccc(C)cc1", "z-score": "0.0062 (inactive)"}
{"COMPOUND": "CN(C)CCCC[C@@H]1NC(=O)[C@H]2C[C@@H](C(=O)O)[C@@H](c3cccc(OCCO)c3)N2C1=O", "z-score": "-0.151 (inactive)"}
{"COMPOUND": "COC(=O)[C@@]1(Cc2ccccc2CN=[N+]=[N-])COC(c2ccc(OCCCO)cc2)=N1", "z-score": "-0.74 (inactive)"}
{"COMPOUND": "COCC(=C=CC[C@@H](O)c1ccc(OCCO)cc1)C[C@@H](O)COCc1ccccc1", "z-score": "0.859 (inactive)"}
{"COMPOUND": "CC(C)C[C@@H]1NC(=O)C([C@@H](C)OCc2ccccc2)NC(=O)[C@@]23C(=O)N[C@@H](Cc4ccccc4)C2[C@H](C)[C@@]2(C)O[C@H]2C3/C=C/CC/C=C/CNC1=O (stereo partly specified)", "z-score": "0.212 (inactive)"}
{"COMPOUND": "C=CC[C@]1(C(=O)NCCCOC)N=C(c2ccc(OCCCO)cc2)O[C@H]1c1ccccc1", "z-score": "0.735 (inactive)"}
{"COMPOUND": "O=C1OCCC=C[C@H]2OC34C=CCN(c5ccc(Cl)cc5)C(=O)[C@H]3N(CCO)C(=O)[C@@H]4C12 (stereo partly specified)", "z-score": "-1.04 (inactive)"}
